Numbers sourced from patent US9127024B2.

- TESTED TARGET: RheoSwitch® (CHO-K1_RS-1 cells, firefly Luciferase reporter) (Choristoneura fumiferana)
- Sequence (O77240 1-513): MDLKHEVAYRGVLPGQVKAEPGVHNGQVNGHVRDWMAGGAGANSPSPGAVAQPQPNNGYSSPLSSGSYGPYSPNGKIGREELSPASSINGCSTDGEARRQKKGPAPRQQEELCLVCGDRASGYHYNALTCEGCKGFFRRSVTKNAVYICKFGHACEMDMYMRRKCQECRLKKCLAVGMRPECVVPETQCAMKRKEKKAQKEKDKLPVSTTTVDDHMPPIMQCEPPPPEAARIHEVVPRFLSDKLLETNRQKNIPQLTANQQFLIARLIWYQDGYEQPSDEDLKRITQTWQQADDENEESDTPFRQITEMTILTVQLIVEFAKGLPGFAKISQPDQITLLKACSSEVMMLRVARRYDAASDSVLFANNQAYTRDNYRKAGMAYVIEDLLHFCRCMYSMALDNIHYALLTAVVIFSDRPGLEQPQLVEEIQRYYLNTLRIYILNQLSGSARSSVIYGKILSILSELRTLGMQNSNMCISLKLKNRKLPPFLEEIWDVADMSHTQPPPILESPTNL
- METHOD DESCRIPTION: in vitro gene switch assay (fLUC Luciferase expression, potency screen)
- Format: cell-based
- CONDITIONS USED: read-out: fLUC assay EC50 Run 2, 24 hours with compound, Run 2
Binarize EC50 at 100 nM; below is TRUE, at or above is FALSE.

CC[C@@H](N(NC(=O)c1ccc2c(c1C)OCCNB2O)C(=O)c1cc(C)cc(C)c1)C(C)(C)C
FALSE
Cc1cc(C)cc(C(=O)N(NC(=O)c2ccc3c(c2C)OCCNB3O)C(C)(C)C)c1
TRUE
COCc1ccc(C(=O)NN(C(=O)c2cc(C)cc(C)c2)C(C)(C)C)c(F)c1B(O)O
FALSE
CC[C@@H](N(NC(=O)c1ccc(COC)c(B(O)O)c1F)C(=O)c1cc(C)cc(C)c1)C(C)(C)C
TRUE
CCC[C@@H](N(NC(=O)c1ccc([B-](F)(F)F)cc1F)C(=O)c1cc(C)cc(C)c1)C(C)(C)C
FALSE
COCc1ccc(C(=O)NN(C(=O)c2cc(C)cc(C)c2)C(C)(C)C)c(F)c1B1OC(C)(C)C(C)(C)O1
FALSE

Now consider a different molecule.
[in] Regarding `CC[C@@H](N(NC(=O)c1ccc(COC)c(B2OC(C)(C)C(C)(C)O2)c1F)C(=O)c1cc(C)cc(C)c1)C(C)(C)C` , kindly confirm whether its EC50 is beneath 100 nM.
[out] TRUE
